Hey, just so you know, these numbers are from ChEMBL document CHEMBL3352004.

test: Volume of distribution at steady state in Sprague-Dawley rat at 1 mg/kg, iv; format: ADME, organism-based; parameters: dose 1 mg/kg, route intravenous; details: in vivo, read-out: Vdss
# key: entry, value: Vd
measured.parameter: Vd (L/kg)

INSERT INTO measurements (compound, endpoint_value) VALUES
  ('O=C(O)CC1CCn2c1cc1cc(OCc3ccc(C4CCCC4)c(C(F)(F)F)c3)ccc12 (stereo in doubt; 12a)', 0.986),
  ('CC(C)Oc1ccc(COc2ccc3c(c2)c(Cl)c2n3CC[C@@H]2CC(=O)O)cc1C#N', 0.9),
  ('CC(C)Oc1ccc(COc2ccc3c(c2)c(Cl)c2n3CC[C@@H]2CC(=O)O)cc1C(F)(F)F', 0.831),
  ('CC(C)Oc1ccc(COc2ccc3c(c2)cc2n3CCC2CC(=O)O)cc1C#N (stereo in doubt; 19a)', 0.732);

* * *

# key: entry, value: EC50
Target: Sphingosine 1-phosphate receptor 4 (Homo sapiens, UniProt O95977)
Sequence (O95977 whole entry): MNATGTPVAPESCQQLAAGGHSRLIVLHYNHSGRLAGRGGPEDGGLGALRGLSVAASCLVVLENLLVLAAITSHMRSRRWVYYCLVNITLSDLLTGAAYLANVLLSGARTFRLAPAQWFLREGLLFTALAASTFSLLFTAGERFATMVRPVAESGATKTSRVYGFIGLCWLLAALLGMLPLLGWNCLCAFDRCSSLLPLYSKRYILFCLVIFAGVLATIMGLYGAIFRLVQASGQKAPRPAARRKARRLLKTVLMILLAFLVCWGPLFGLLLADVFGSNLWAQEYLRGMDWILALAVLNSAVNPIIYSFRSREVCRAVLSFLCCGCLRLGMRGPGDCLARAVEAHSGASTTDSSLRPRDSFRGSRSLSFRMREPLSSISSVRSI
Assay: Agonist activity at human S1P4 receptor by beta-arrestin recruitment assay
measured.parameter: EC50 (µM)

INSERT INTO results (compound, measured_parameter, qualifying_sign, endpoint_value) VALUES
  ('CC(C)Oc1ccc(COc2ccc3c(c2)cc2n3CCC2CC(=O)O)cc1C#N (stereo in doubt; 19b)', 'EC50', '>', 10),
  ('CC(C)Oc1ccc(COc2ccc3c(c2)cc2n3CCC2CC(=O)O)cc1C(F)(F)F (single isomer, unassigned; enantiomer 2)', 'EC50', '>', 10),
  ('O=C(O)CC1CCn2c1cc1cc(OCc3ccc(C4CCCC4)c(C(F)(F)F)c3)ccc12 (stereo in doubt; 12b)', 'EC50', '=', 0.42),
  ('CC(C)Oc1ccc(COc2ccc3c(c2)cc2n3CCC2CC(=O)O)cc1C(F)(F)F (single isomer, unassigned; enantiomer 1)', 'EC50', '>', 10),
  ('CC(C)Oc1ccc(COc2ccc3c(c2)c(Cl)c2n3CC[C@@H]2CC(=O)O)cc1C(F)(F)F', 'EC50', '=', 0.085),
  ('CC(C)Oc1ccc(COc2ccc3c(c2)cc2n3CCC2CC(=O)O)cc1C#N (stereo in doubt; 19a)', 'EC50', '>', 10),
  ('O=C(O)CC1CCn2c1cc1cc(OCc3ccc(C4CCCC4)c(C(F)(F)F)c3)ccc12 (stereo in doubt; 12a)', 'EC50', '=', 0.57),
  ('CC(C)Oc1ccc(COc2ccc3c(c2)c(Cl)c2n3CC[C@@H]2CC(=O)O)cc1C#N', 'EC50', '=', 8.6);
